FYI, the data here is from paper PMC12114633.

Tested on: normal C57BL/6J mice
method notes: Oral sucrose test, postprandial blood glucose
Assay type: in vivo
stated conditions: 10 mg/kg oral, 30 min after sucrose 4 g/kg, n = 8; in mmol/L (unit assumed)
Would you mind telling me the reported Blood glucose levels of each entry?

Here is how some compounds turned out for Blood glucose levels.
[[record]]
compound = "O=c1c(O[C@@H]2O[C@H](CO)[C@@H](O)[C@H](O)[C@H]2O)c(-c2ccc(O)c(O)c2)oc2cc(O)cc(O)c12"
result = "12.41 ± 2.07"

[[record]]
compound = "O=C1c2ccc(O)cc2OCC1c1ccc(O)cc1 (stereo not shown) [C28, dihydrodaidzein]"
result = "12.74 ± 0.75"


Hi, could you look up Blood glucose levels for each item in my list?
1. C[C@@H]1O[C@@H](OC[C@H]2O[C@@H](Oc3c(-c4ccc(O)c(O)c4)oc4cc(O)cc(O)c4c3=O)[C@H](O)[C@@H](O)[C@@H]2O)[C@H](O)[C@H](O)[C@H]1O
2. O=C(/C=C/c1ccc(O)cc1)c1ccc(O)cc1O

["12.81 ± 1.23", "12.81 ± 1.00"]

====

assay target: α-glucosidase (Saccharomyces cerevisiae)
Construct: purchased Shanghai Yuanye Biotechnology Co., Shanghai, China Lot No. M23HS178879 (catalogue number not given)
method notes: CD spectroscopy, secondary structure of α-glucosidase (BeStSel)
stated conditions: molar ratio 40:1, α-glucosidase 4 μM; free enzyme 11.7
Would you mind telling me the reported β-turn of each entry?
Numbers only, in %.

Here is how some molecules turned out for β-turn.
[[record]]
molecule = "O=C1C[C@@H](c2ccc(O)cc2)Oc2cc(O)cc(O)c21 [C5, naringenin]"
measurement_unit = "%"
quantitative_result = 13

[[record]]
molecule = "O=c1c(O)c(-c2ccc(O)c(O)c2)oc2cc(O)cc(O)c12 [C1, quercetin]"
measurement_unit = "%"
quantitative_result = 12.5

[[record]]
molecule = "O=C1C[C@@H](c2ccc(O)cc2)Oc2cc(O)ccc21 [C3, liquiritigenin]"
measurement_unit = "%"
quantitative_result = 16.2


Hi, could you look up β-turn for each item in my list?
1. O=c1c(O)c(-c2ccc(O)cc2)oc2cc(O)cc(O)c12 [C2, kaempferol]
2. O=c1c(-c2ccc(O)cc2)coc2cc(O)ccc12 [C11, daidzein]
3. O=C1c2ccc(O)cc2OCC1c1ccc(O)cc1 (centres unmarked) [C28, dihydrodaidzein]
4. O=C(/C=C/c1ccc(O)cc1)c1ccc(O)cc1O [C4, isoliquiritigenin]
5. COc1ccc2c(c1OC)OC1c3ccc(O[C@@H]4O[C@H](CO)[C@@H](O)[C@H](O)[C@H]4O)cc3OCC21 (some centres unmarked) [C19, astrapterocarpan-3-O-glucoside]
6. COc1ccc(-c2coc3cc(O[C@@H]4O[C@H](CO)[C@@H](O)[C@H](O)[C@H]4O)ccc3c2=O)cc1O [C16, calycosin-7-O-glucoside]

[13.3, 14.3, 12.9, 12.1, 10.2, 11.5]

====

Would you mind telling me the reported pKd of each entry?
assay target: α-glucosidase (Saccharomyces cerevisiae, UniProt P53341)
Construct: purchased Shanghai Yuanye Biotechnology Co., Shanghai, China Lot No. M23HS178879 (catalogue number not given)
Sequence (P53341 whole entry): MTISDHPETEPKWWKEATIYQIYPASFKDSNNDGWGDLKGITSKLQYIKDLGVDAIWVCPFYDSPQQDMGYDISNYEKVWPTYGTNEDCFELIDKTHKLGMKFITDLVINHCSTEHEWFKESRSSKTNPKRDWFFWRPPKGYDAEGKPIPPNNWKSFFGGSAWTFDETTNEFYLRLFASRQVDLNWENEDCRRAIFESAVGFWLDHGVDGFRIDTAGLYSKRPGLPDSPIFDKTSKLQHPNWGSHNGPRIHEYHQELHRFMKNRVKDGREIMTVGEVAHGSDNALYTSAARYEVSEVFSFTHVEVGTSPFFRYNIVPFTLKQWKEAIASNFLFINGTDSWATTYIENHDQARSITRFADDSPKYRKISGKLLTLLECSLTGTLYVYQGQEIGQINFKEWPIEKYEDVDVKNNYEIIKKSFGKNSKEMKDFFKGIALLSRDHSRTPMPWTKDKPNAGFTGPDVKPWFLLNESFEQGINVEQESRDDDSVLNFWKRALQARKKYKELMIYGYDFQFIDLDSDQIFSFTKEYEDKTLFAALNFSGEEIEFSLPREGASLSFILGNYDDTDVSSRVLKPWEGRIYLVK
method notes: biochemical
Assay type: binding
pKd: −log10 of the molar value.

[[record]]
molecule = "O=C(/C=C/c1ccc(O)cc1)c1ccc(O)cc1O"
result = "< 2.70"

[[record]]
molecule = "O=C1C[C@@H](c2ccc(O)cc2)Oc2cc(O)ccc21"
result = "< 2.70"


Please give the measured pKd for this molecule: COc1ccc(C2COc3cc(O)ccc3C2)c(O)c1OC (stereo not drawn)
< 2.70

====

assay target: α-glucosidase (Saccharomyces cerevisiae, UniProt P53341)
Construct: purchased Shanghai Yuanye Biotechnology Co., Shanghai, China Lot No. M23HS178879 (catalogue number not given)
method notes: CD spectroscopy, secondary structure of α-glucosidase (BeStSel)
stated conditions: molar ratio 10:1, α-glucosidase 4 μM; free enzyme 28.8
property name: β-sheet (%)
Give bare numbers, in %.

Here is how some compounds turned out for β-sheet.
[[record]]
compound = "O=C1c2ccc(O)cc2OCC1c1ccc(O)cc1 (stereo not shown) [C28, dihydrodaidzein]"
quantitative_result = 25.6

[[record]]
compound = "COc1ccc2c(c1OC)OC1c3ccc(O[C@@H]4O[C@H](CO)[C@@H](O)[C@H](O)[C@H]4O)cc3OCC21 (stereo partly shown) [C19, astrapterocarpan-3-O-glucoside]"
quantitative_result = 26.7

[[record]]
compound = "O=C1C[C@@H](c2ccc(O)cc2)Oc2cc(O)cc(O)c21"
quantitative_result = 20.6


Hi, could you look up β-sheet for each item in my list?
1. O=C(/C=C/c1ccc(O)cc1)c1ccc(O)cc1O
2. O=c1c(O)c(-c2ccc(O)c(O)c2)oc2cc(O)cc(O)c12
3. C[C@@H]1O[C@@H](OC[C@H]2O[C@@H](Oc3c(-c4ccc(O)c(O)c4)oc4cc(O)cc(O)c4c3=O)[C@H](O)[C@@H](O)[C@@H]2O)[C@H](O)[C@H](O)[C@H]1O
4. O=c1c(O[C@@H]2O[C@H](CO)[C@@H](O)[C@H](O)[C@H]2O)c(-c2ccc(O)c(O)c2)oc2cc(O)cc(O)c12

1: 31.0; 2: 23.6; 3: 26.9; 4: 24.0

====

Would you mind telling me the reported β-turn of each entry?
assay target: α-glucosidase (Saccharomyces cerevisiae, UniProt P53341)
Construct: purchased Shanghai Yuanye Biotechnology Co., Shanghai, China Lot No. M23HS178879 (catalogue number not given)
method notes: CD spectroscopy, secondary structure of α-glucosidase (BeStSel)
stated conditions: molar ratio 40:1, α-glucosidase 4 μM; free enzyme 11.7
Give bare numbers, in %.

[[record]]
compound = "COc1cc(-c2oc3cc(O)cc(O)c3c(=O)c2OC2OC(CO)C(O)C(O)C2O)ccc1O (centres unmarked) [C14, isorhamnetin-3-O-glucoside]"
assay_target = "α-glucosidase (Saccharomyces cerevisiae, UniProt P53341)"
property_name = "β-turn"
measurement_unit = "%"
quantitative_result = 15.7


Hi, could you look up β-turn for each item in my list?
1. Oc1ccc([C@H]2COc3cc(O)ccc3C2)cc1 [C29, equol]
2. COc1ccc(C2COc3cc(O)ccc3C2)c(O)c1OC (centres unmarked) [C17, isomucronulatol]
3. C[C@@H]1O[C@@H](OC[C@H]2O[C@@H](Oc3c(-c4ccc(O)c(O)c4)oc4cc(O)cc(O)c4c3=O)[C@H](O)[C@@H](O)[C@@H]2O)[C@H](O)[C@H](O)[C@H]1O [C6, rutin]

[13.2, 13.6, 17.6]

Please give the measured β-turn for this compound: O=c1c(O[C@@H]2O[C@H](CO)[C@@H](O)[C@H](O)[C@H]2O)c(-c2ccc(O)c(O)c2)oc2cc(O)cc(O)c12 [C10, isoquercitrin]
13.1
